Where these numbers come from: patent US20070213301A1

# Tested on: HCV replicon
# assay: HCV replicon replication assay (NPTII ELISA)
# Assay type: cell-based, Hepatitis C virus (Huh-7 cells)
# testParameters: Hepatitis C virus, Huh-7, 72 h, inhibition of HCV replicon replication in Huh-7 HCV replicon-containing cells, three days incubation, NPT level by ELISA; read-out: EC50
pEC50: −log10 of the molar value.
quantityName: pEC50

Below is a list of compounds. For each, state its recorded pEC50.
1. Cc1ccc(-c2csc(N(C(N)=O)c3ccc(OCC(C)C)c(C(F)(F)F)c3)n2)cn1
2. CCCCCOc1ccc(N(C(=O)C(=O)OC)c2nc(C(=O)Nc3cccnc3)cs2)cc1C(F)(F)F
3. CCCCCOc1ccc(N(C(N)=O)c2nc(-c3cccnc3)c(F)s2)cc1C(F)(F)F

["> 6.00", "> 6.00", "> 6.00"]

Hi there! I need pEC50 for each item below, if you can.
1. CCCCCOc1ccc(N(C)c2nc(C(=O)O)cs2)cc1C(F)(F)F
2. CCCCCOc1ccc(N(C(=O)C(C)C)c2nc(-c3cccnc3)cs2)cc1F
3. CCCCCOc1ccc(N(C(=O)C2CC2)c2nc(-c3ccc(C(=O)N(C)C)cn3)cs2)cc1C(F)(F)F
4. CCCCCOc1ccc(N(C(=O)CO)c2nc(-c3cccnc3)cs2)cc1C(F)(F)F
5. CCCCCOc1ccc(N(C(=O)C(C)C)c2nc(CN(C)C)cs2)cc1C(F)(F)F
6. CCCCCOc1ccc(N(C)c2nc(C(=O)Nc3cccnc3)cs2)cc1C(F)(F)F
7. CCCCCOc1ccc(N(C(C)=O)c2nc(-c3ccc(F)cc3)cs2)cc1C(F)(F)F

1. < 5.00
2. > 6.00
3. < 5.00
4. > 6.00
5. 5.00 to 6.00
6. 5.00 to 6.00
7. > 6.00

// input: 4 compounds below; output: pEC50 for each
1. NC(=O)N(c1ccc(OCC2CCCCC2)c(F)c1)c1nc(-c2ccc3c(c2)NC(=O)CO3)cs1
2. CCCCCOc1ccc(N(C(N)=O)c2nc(-c3ccc(O)c(C(N)=O)c3)cs2)cc1F
3. CCCCCOc1ccc(N(C(C)=O)c2nc(-c3cccnc3)cs2)cc1C(F)(F)F
4. CCCCCOc1ccc(N(C)c2nc(-c3ccc(CN4CCN(C)CC4)nc3)cs2)cc1C(F)(F)F

< 5.00
5.00 to 6.00
> 6.00
> 6.00

Return reported pEC50 values for all items listed beneath this line.
1. CC(C)COc1ccc(N(C(N)=O)c2nc(-c3cccnc3)cs2)cc1C(F)(F)F
2. CCCCCOc1ccc(N(C(=O)C(=O)OC)c2nc(-c3ccc(Cl)s3)cs2)cc1C(F)(F)F
3. CCCCCCCCOc1ccc(N(C(=O)COC(C)=O)c2nc(-c3ccc(F)cc3)cs2)cc1
4. CCCCCCCOc1ccc(N(C(N)=O)c2nc(-c3ccc(F)cc3)cs2)cc1

> 6.00
> 6.00
> 6.00
> 6.00

Here are 2 compounds. What values of pEC50 were reported for them?
1. CCCCCN(C)c1ccc(N(C(N)=O)c2nc(-c3ccc(C)nc3)cs2)cc1C(F)(F)F
2. CCCCOc1ccc(N(C(N)=O)c2nc(-c3ccc(F)cc3)cs2)cc1C(F)(F)F

["> 6.00", "> 6.00"]

For each entry beneath this line, provide reported pEC50.
1. NC(=O)N(c1ccc(OCC2CCCCC2)c(F)c1)c1nc(-c2ccc(F)c(F)c2)cs1
2. CCCCCCCCOc1ccc(N(C(=O)OCCOCCOCCOCCOC)c2nc(-c3cccnc3)c(F)s2)cc1C(F)(F)F
3. NC(=O)N(c1ccc(F)c(C(F)(F)F)c1)c1nc(-c2cccnc2)cs1
4. CCCCCCOc1ccc(N(C(N)=O)c2nc(-c3ccc4c(c3)NC(=O)CO4)cs2)cc1

1. > 6.00
2. > 6.00
3. > 6.00
4. 5.00 to 6.00

Hi, could you look up pEC50 for each item in my list?
1. CC(C)COc1ccc(N(C(N)=O)c2nc(-c3ccc4c(c3)NC(=O)CO4)cs2)cc1C(F)(F)F
2. CC(C)COc1ccc(N(C(N)=O)c2nc(-c3ccc(O)c(C(N)=O)c3)cs2)cc1C(F)(F)F
3. CCCCCCCCOc1ccc(N(C(N)=O)c2nc(-c3cccnc3)cs2)cc1
4. CCCCCCCCOc1ccc(N(C(N)=O)c2nc(-c3ccncc3)cs2)cc1

1: > 6.00; 2: > 6.00; 3: > 6.00; 4: < 5.00
